Data provenance is PubChem BioAssay (Tox21).

# TESTED TARGET: 5-hydroxytryptamine receptor 2A (Homo sapiens) (UniProt P28223)
# Sequence (P28223 whole entry, looked up): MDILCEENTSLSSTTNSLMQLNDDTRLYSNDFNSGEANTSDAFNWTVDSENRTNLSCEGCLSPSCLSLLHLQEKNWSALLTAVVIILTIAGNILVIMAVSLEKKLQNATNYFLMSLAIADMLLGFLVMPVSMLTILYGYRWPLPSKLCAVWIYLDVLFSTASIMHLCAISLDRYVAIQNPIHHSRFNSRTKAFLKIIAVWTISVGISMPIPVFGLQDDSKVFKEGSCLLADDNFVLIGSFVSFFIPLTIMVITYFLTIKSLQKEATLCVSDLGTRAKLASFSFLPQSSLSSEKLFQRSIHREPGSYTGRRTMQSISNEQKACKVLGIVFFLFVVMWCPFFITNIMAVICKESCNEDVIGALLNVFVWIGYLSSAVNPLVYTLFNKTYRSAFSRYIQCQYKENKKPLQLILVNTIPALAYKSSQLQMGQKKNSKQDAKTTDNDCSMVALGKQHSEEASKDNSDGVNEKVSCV
# EXPERIMENTAL DETAILS: 5-hydroxytryptamine receptor 2A (HTR2A) small molecule agonists, cell-based qHTS assay (AID 1963587); note: nearly all actives have a fitted effect of over 30% in size
# SETTINGS: HTR2A-CHO cells, calcium flux fluorescence, agonist mode; series mostly up to 76.8 µM
Results filed as inconclusive are left out. Activity calls are given as the source filed them. Calls come from the whole dose curve.
Outcome codes: label 1 = active, label 0 = inactive

[
  {
    "COMPOUND": "Cc1ccc(Nc2nccc(N(C)c3ccc4c(C)n(C)nc4c3)n2)cc1S(N)(=O)=O",
    "GROUP LABEL": "label 0"
  },
  {
    "COMPOUND": "CC(C)(C)C1CCCCC1=O (stereo not given)",
    "GROUP LABEL": "label 0"
  },
  {
    "COMPOUND": "COC(=O)/C=C(\\C)CCC=C(C)C",
    "GROUP LABEL": "label 0"
  },
  {
    "COMPOUND": "O=C1CCCC(=O)O1",
    "GROUP LABEL": "label 0"
  },
  {
    "COMPOUND": "CCCCCCOc1cc(C)c(O)c(C)c1C",
    "GROUP LABEL": "label 1"
  },
  {
    "COMPOUND": "O=C(O)C(c1ccc(Cl)cc1)c1ccc(Cl)cc1",
    "GROUP LABEL": "label 0"
  },
  {
    "COMPOUND": "CN1CCC(OC(c2ccccc2)c2ccccc2)CC1",
    "GROUP LABEL": "label 0"
  },
  {
    "COMPOUND": "CC(=O)Oc1ccc2c(c1)CC[C@@H]1[C@@H]2CC[C@]2(C)[C@@H](O)CC[C@@H]12",
    "GROUP LABEL": "label 0"
  },
  {
    "COMPOUND": "CN(C)CCCO[C@@H]1[C@H]2OC(C)(C)O[C@H]2O[C@@H]1C(O)CO (stereo not given in full)",
    "GROUP LABEL": "label 0"
  },
  {
    "COMPOUND": "Oc1c(I)cc(Cl)c2cccnc12",
    "GROUP LABEL": "label 0"
  },
  {
    "COMPOUND": "CCO[Si](CCCS)(OCC)OCC",
    "GROUP LABEL": "label 0"
  },
  {
    "COMPOUND": "CCOc1ccc(NC(=O)CC(C)=O)cc1",
    "GROUP LABEL": "label 0"
  },
  {
    "COMPOUND": "On1ccccc1=S",
    "GROUP LABEL": "label 1"
  },
  {
    "COMPOUND": "O=C(Nc1ccc(Oc2ccc(Cl)cc2)c(Cl)c1)c1cc(I)cc(I)c1O",
    "GROUP LABEL": "label 0"
  },
  {
    "COMPOUND": "O=C(/C=C/c1ccc(O)c(O)c1)O[C@@H]1C[C@@](OC(=O)/C=C/c2ccc(O)c(O)c2)(C(=O)O)C[C@@H](O)[C@@H]1O",
    "GROUP LABEL": "label 0"
  },
  {
    "COMPOUND": "CCOC(=O)c1ccc(C#Cc2ccc3c(c2)C(C)(C)CCS3)nc1",
    "GROUP LABEL": "label 0"
  },
  {
    "COMPOUND": "Cc1ncc([N+](=O)[O-])n1CC(O)CCl (stereo not given)",
    "GROUP LABEL": "label 0"
  },
  {
    "COMPOUND": "CCOc1cccc(-n2cc(C(=O)N3CCN(c4cc(C(=O)O)c5ccccc5c4)CC3)nc2-c2ccc(C)cc2)c1",
    "GROUP LABEL": "label 1"
  },
  {
    "COMPOUND": "c1ccc(CN(Cc2ccccc2)Cc2ccccc2)cc1",
    "GROUP LABEL": "label 0"
  },
  {
    "COMPOUND": "O=C(O)COc1ccc2ccccc2c1",
    "GROUP LABEL": "label 0"
  },
  {
    "COMPOUND": "C=CC(C)(CCC=C(C)C)OC(=O)CC(C)C (stereo not given)",
    "GROUP LABEL": "label 0"
  },
  {
    "COMPOUND": "CC(C)COC(=O)/C=C/c1ccccc1",
    "GROUP LABEL": "label 0"
  },
  {
    "COMPOUND": "Cc1cccc(Br)c1",
    "GROUP LABEL": "label 0"
  },
  {
    "COMPOUND": "COc1cc(C(C)(C)C)c(O)c(C(C)(C)C)c1",
    "GROUP LABEL": "label 0"
  },
  {
    "COMPOUND": "COCc1nnc(-c2ccc[n+]([O-])c2)n1-c1c(Cl)c(Cl)cc2[nH]c(=O)c(=O)[nH]c12",
    "GROUP LABEL": "label 0"
  },
  {
    "COMPOUND": "COc1ccc(/C=C/c2cc(OC)cc(=O)o2)cc1",
    "GROUP LABEL": "label 0"
  },
  {
    "COMPOUND": "NCCCCCCNCCCCCCN",
    "GROUP LABEL": "label 0"
  },
  {
    "COMPOUND": "CO[Si](OC)(c1ccccc1)c1ccccc1",
    "GROUP LABEL": "label 0"
  },
  {
    "COMPOUND": "CCCC(=O)OC[C@@H](OC(=O)CCC)[C@@H](OC(=O)CCC)[C@H](Cn1c2nc(=O)[nH]c(=O)c-2nc2cc(C)c(C)cc21)OC(=O)CCC",
    "GROUP LABEL": "label 1"
  },
  {
    "COMPOUND": "CCCCOc1ccc(CC(=O)NO)cc1",
    "GROUP LABEL": "label 0"
  },
  {
    "COMPOUND": "O=C1NC2CCCCN2C12CCN(CCCN1c3ccccc3CCc3ccc(Cl)cc31)CC2 (stereo not given)",
    "GROUP LABEL": "label 0"
  },
  {
    "COMPOUND": "Fc1ccc(C(c2ccc(F)cc2)N2CCNCC2)cc1",
    "GROUP LABEL": "label 0"
  },
  {
    "COMPOUND": "Nc1ccc([N+](=O)[O-])c(N)c1",
    "GROUP LABEL": "label 0"
  },
  {
    "COMPOUND": "COC(=O)[C@]1(C)CCC[C@@]2(C)[C@H]1CC=C1C=C(C(C)C)CC[C@@H]12",
    "GROUP LABEL": "label 0"
  },
  {
    "COMPOUND": "O=C(O)Cc1ccc(Cl)cc1Cl",
    "GROUP LABEL": "label 0"
  },
  {
    "COMPOUND": "C[C@H](CCC(=O)O)[C@H]1CC[C@H]2[C@@H]3C(=O)C[C@@H]4CC(=O)CC[C@]4(C)[C@H]3CC(=O)[C@]12C",
    "GROUP LABEL": "label 0"
  },
  {
    "COMPOUND": "CC(=O)NNC(C)=O",
    "GROUP LABEL": "label 0"
  },
  {
    "COMPOUND": "NC(CSCC(=O)O)C(=O)O (stereo not given)",
    "GROUP LABEL": "label 0"
  },
  {
    "COMPOUND": "COc1cc(C(=O)NC2CCN(C)CC2)ccc1Nc1ncc2c(n1)N(C1CCCC1)CC(F)(F)C(=O)N2C",
    "GROUP LABEL": "label 0"
  },
  {
    "COMPOUND": "CCCCCCCCCCC1CO1 (stereo not given)",
    "GROUP LABEL": "label 0"
  },
  {
    "COMPOUND": "CCC(C)(CCC(C)C)C(=O)[O-].CCC(C)(CCC(C)C)C(=O)[O-].[Zn+2] (stereo not given)",
    "GROUP LABEL": "label 0"
  },
  {
    "COMPOUND": "COc1cc(Cl)c(OC)cc1N",
    "GROUP LABEL": "label 0"
  },
  {
    "COMPOUND": "CN1CCN(C)CC1",
    "GROUP LABEL": "label 0"
  },
  {
    "COMPOUND": "CN1CCC(=C2c3ccccc3Sc3ccccc32)CC1",
    "GROUP LABEL": "label 0"
  },
  {
    "COMPOUND": "CCCCCCCCC(CO)CCCCCC (stereo not given)",
    "GROUP LABEL": "label 0"
  },
  {
    "COMPOUND": "CC(=O)c1ccccc1[N+](=O)[O-]",
    "GROUP LABEL": "label 0"
  },
  {
    "COMPOUND": "CCN(CCC#N)c1ccc(N=Nc2c(Cl)cc([N+](=O)[O-])cc2Cl)cc1",
    "GROUP LABEL": "label 0"
  },
  {
    "COMPOUND": "Cc1c[nH]c(=O)[nH]c1=O",
    "GROUP LABEL": "label 0"
  },
  {
    "COMPOUND": "ClCCOCCOCCCl",
    "GROUP LABEL": "label 0"
  },
  {
    "COMPOUND": "CC[N+](CC)(CC)CCOc1ccc(/C=C/c2ccccc2)cc1",
    "GROUP LABEL": "label 0"
  }
]
